- test_protocol: Example 8 pharmacokinetics assay for efficacy study (plasma, liver)
- Type: in vivo, BALB/c nude mice
- cond: mouse, plasma, po, 35 mg/kg, p.o., QD × 21 days, read-out: Concentration in Plasma (mean ± SEM)
property: concentration at 6 h (ng/mL)
The answer is to be given in ng/mL; state only the numeric part.

Input: # concentration at 6 h lookup, item COC(=O)N[C@@H](C)CNc1nccc(-c2cn(C(C)C)nc2-c2cc(Cl)cc(NS(C)(=O)=O)c2F)n1 [Encorafenib, encorafenib, reference compound]
Output: 336

* * *

- test_protocol: Pharmacokinetics after 21 days dosing in the efficacy study (plasma, tumor and brain concentrations; plasma AUC at steady state), Example 14
- Format: in vivo, female BALB/c nude mice
- cond: mouse, brain, po; 10 mg/kg p.o. BID x 21 days; 4 h; mean ± SEM; read-out: Concentration in Brain
property: concentration at 4 h
Please answer using a numeric value trailed by its unit.

Input: # concentration at 4 h lookup, item CCN(C)S(=O)(=O)Nc1ccc(F)c(Oc2ccc3ncn([C@H]4COC5(CCN(C6CC7(C6)CN(c6cc8c(cc6F)c(N6CCC(=O)NC6=O)nn8C)C7)CC5)C4)c(=O)c3c2)c1C#N
Output: 233 ng/g

Data credit: patent US20260297060A1
